Source listed as ChEMBL document CHEMBL1201862.

- Tested on: RPMI-8226
- measurement notes: NCI tumour cell line growth inhibition, 48 h
Active and inactive are the calls of the source. No stated cut-off is given here; in the data, active = GI50 up to about 1.1 µM and inactive = higher.
Form entry, call: pick from Yes (active), No (inactive)

1. CCCCCCN(CCCCCC)C1=CC(=O)C(=O)c2ccccc21 :: No
2. COc1ccc(C2S/C(=C\c3ccc(O)cc3)C(=O)N2NC(=O)Cc2ccccc2)cc1 (stereo not drawn) :: No
3. Cc1ccc(-c2cs/c(=N\c3c(C)n(C)n(-c4ccccc4)c3=O)n2CCO)cc1 :: No

Record lookup: outcome of this test for Cc1ccc(NC(=O)CC/C(CC(=O)C(C)(C)C)=N/NC(=O)C(N)=O)cc1C ?
No

Queued: Fc1cccc(F)c1C(Nc1nncs1)Nc1nncs1
No

Queued: C/C(=N\N=C(/S)N1CC2CCC(CC2)C1)c1ccncn1
Yes

Queued: CCOC(=O)NC(NCC(O)c1ccccc1)(C(F)(F)F)C(F)(F)F (stereo not drawn)
No

Queued: COC(=O)C1(Cc2ccc3c(c2)CCC3)Cc2ccccc2C1O (stereo not drawn)
No

Queued: CN(C)c1ccc(/C=N\N2C(=O)c3ccccc3C2=O)cc1
No

====

- Tested on: RXF 631
- measurement notes: NCI tumour cell line growth inhibition, 48 h
Calls of active or inactive are those of the source. No stated cut-off is given here; in the data, active = GI50 up to about 1.1 µM and inactive = higher.
quantity: GI50

1. O=C(O)CNS(=O)(=O)c1ccc(NC(=O)c2ccc([N+](=O)[O-])cc2)cc1 :: > 100 µM (inactive)

Look up GI50 for this compound: CCC(=O)O[C@@H]1C2C(OC(C)=O)C34COC(C)([C@@H]3C3C(C[C@]3(C)OC(C)=O)[C@@H](OC(=O)c3ccccc3)C4=O)[C@H](OC(C)=O)[C@@]2(OC(C)=O)C[C@@H]1C (stereo not given in full)
86.1 µM (inactive)

Queued: COc1ccc2c(CCNC(=O)/C=C/c3ccccc3)c(C(C)=O)[nH]c2c1[N+](=O)[O-]
13.2 µM (inactive)

Queued: COC(=O)c1nc(N)nc(O)c1CCCCCc1c(O)nc(N)nc1C(=O)OC
> 50 µM (inactive)

Queued: O=[N+]([O-])c1ccc(C2SCc3nc4ccccc4n32)cc1 (stereo not given)
> 100 µM (inactive)

Queued: O=C1c2ccccc2C(=O)c2c(O)c(O)cc(O)c21 [PURPURIN]
39.4 µM (inactive)

====

- Test system: BT-549
- measurement notes: NCI tumour cell line growth inhibition, 48 h
Activity calls are given as the source filed them. No stated cut-off is given here; in the data, active = GI50 up to about 1.1 µM and inactive = higher. Starred links: 1 amine or outer side, 2 acyl side, 3 side chain; linkers in the order of their positions; H or OH if unused. Positions of bridges follow the written chain, without caps; N, C: chain ends. Non-standard residues stand in square brackets, D forms with d. Residues, ends and D or L forms follow the SMILES beside them. Chains are numbered I, II in the order given. Actinocin(1to9) = Cc1c2oc3c(C)ccc(C(=O)[*:2])c3nc-2c(C(=O)[*:1])c(N)c1=O; NMeV = CN[CH](C(=O)O)C(C)C; Sar = CNCC(=O)O
Form entry, call: pick from T = active, F = inactive

1. CC1OC(=O)C(C(C)C)NC(=O)C(C(C)C)OC(=O)C(C(C)C)NC(=O)C(C)OC(=O)C(C(C)C)NC(=O)C(C(C)C)OC(=O)C(C(C)C)NC(=O)C(C)OC(=O)C(C(C)C)NC(=O)C(C(C)C)OC(=O)C(C(C)C)NC1=O (stereo not drawn) :: T

Record lookup: outcome of this test for Cc1ccc(-n2cnc(C(=N)C#N)c2N)cc1 ?
F

Queued: CCC(C)C1NC(=O)C(NC(=O)c2c3nc4c(C(=O)NC5C(=O)NC(C(C)CC)C(=O)N6CCCC6C(=O)N(C)CC(=O)N(C)C(C(C)C)C(=O)OC5C)ccc(C)c4oc-3c(C)c(=O)c2N)C(C)OC(=O)C(C(C)C)N(C)C(=O)CN(C)C(=O)C2CCCN2C1=O (stereo not drawn) (I: TIP[Sar][NMeV] / II: TIP[Sar][NMeV]; ester I:1-I:C, II:1-II:C; linker I:N-II:N via Actinocin(1to9); configuration not given here)
T

Queued: COc1ccc(C(=O)N(C(=S)OCCOc2ccccc2)c2ccccc2)cc1
F

Queued: O=[N+]([O-])c1ccccc1OCCOc1ccccc1[N+](=O)[O-]
F

Queued: CCOC(=O)c1ccc(Nc2cnc3ccc(C(F)(F)F)cc3n2)cc1
F

Queued: CCOC(=O)C(NC(=O)c1ccccc1)(Nc1cc(C)on1)C(F)(F)F (stereo not drawn)
F

Queued: C=CCNC1=C2C[C@@H](C)C[C@@H](OC)[C@H](OC(=O)CN(C)C)[C@H](C)/C=C(\C)[C@@H](OC(N)=O)[C@H](OC)/C=C\C=C(/C)C(=O)NC(=CC1=O)C2=O
F

Queued: COC1=C(OC)C(=O)C(C/C=C/c2c(Cl)nc3sccn23)=C(C)C1=O
F

Queued: CCc1ccccc1NC(=O)/C=C/c1ccccc1
F

Queued: CC1=C(C(=O)Nc2ccccc2)C(c2ccc(C)o2)C(C#N)=C(SCc2ccccc2)N1 (stereo not drawn)
F

Queued: CC(N1CCOCC1)C(O)(c1ccccc1)c1ccccn1 (stereo not drawn)
F

Queued: CCc1ccccc1NNc1cc(=O)[nH]c(=O)[nH]1
F
